FYI, the data here is from patent US4738979A.

So I've got a bunch of compounds here, and I need their responders at 10 mg/kg values.
System: bicuculline-induced tonic extension in mice
test details: protection against bicuculline-induced tonic extension in mice
Type: in vivo
condition set: Mus musculus, iv, 3 hours prior to bicuculline 0.7 mg/kg i.v., read-out: Anticonvulsive effect (versus Bicuculline) (% Protection)
Respond numerically; units are % and should not be typed.

Entry Clc1ccccc1C(Cc1c[nH]cn1)c1ccccc1 (stereo not drawn) , responders at 10 mg/kg reported as 20

Entry CC(=C(c1ccccc1)c1ccccc1)c1c[nH]cn1 , responders at 10 mg/kg reported as 20

Entry Cc1cccc(C(Cc2c[nH]cn2)c2ccccc2)c1 (stereo not drawn) , responders at 10 mg/kg reported as 20
